Published IC50 for UniProtKB Q92769, assembled from different documents, is shown next.

Example compounds with recorded IC50:
Exercise: Record request: IC50 value, item `COc1cc(CN(C(=O)OCc2ccccc2)[C@H]2CCN(c3ccc(C(=O)Nc4ccccc4N)cc3)C2)cc(OC)c1OC`
Key: ≤ 500 nM

Exercise: Record request: IC50 value, item `C/C=C1\NC(=O)c2cccc(n2)CNC(=O)C[C@@H](/C=C/CCSC(=O)CCCCCCC)OC(=O)[C@H](C)NC1=O`
Key: 55 nM

Exercise: Record request: IC50 value, item `Nc1ccc(-c2ccc(F)cc2)cc1NC(=O)c1cnc(N2CCNCC2)cn1`
Key: 10 to 500 nM

Exercise: Record request: IC50 value, item `COc1ccc(OC)c(CNc2ccc(C(=O)NO)cc2)c1`
Key: 900 to 1100 nM

Exercise: Record request: IC50 value, item `Nc1ccc(-c2ccoc2)cc1NC(=O)c1ncc(N2CCNCC2)cn1`
Key: 30 to 40 nM

Exercise: Record request: IC50 value, item `O=C1NCc2ccc(-c3nnn(Cc4ccc(-c5nnc(C(F)F)o5)cn4)n3)cc21`
Key: > 30000 nM

Exercise: Record request: IC50 value, item `Nc1ccc(-c2ccccc2)nc1NC(=O)c1cccnc1`
Key: < 200 nM

Next:
Exercise: Record request: IC50 value, item `C/C=C1\NC(=O)c2cc(F)cc(n2)CNC(=O)C[C@@H](/C=C/CCSC(=O)CC)OC(=O)[C@H](C(C)C)NC1=O`
Key: 41 nM

###

Published IC50 for Histone deacetylase 2 (Homo sapiens), assembled from different documents, is shown next.

Example molecules with recorded IC50:
Exercise: Recorded IC50 for `Nc1ccccc1NC(=O)c1ccc(CN2C(=O)Nc3ccc(-c4ccoc4)cc3S2(=O)=O)cc1` with Histone deacetylase 2 (Homo sapiens), please?
Key: < 50 nM

Exercise: Recorded IC50 for `CN1CCN(c2ccc(C(=O)Nc3cc(-c4ccccc4)ccc3N)cn2)CC1` with Histone deacetylase 2 (Homo sapiens), please?
Key: 10 to 500 nM

Exercise: Recorded IC50 for `Nn1c(Sc2ccc(C(=O)NO)cc2)nnc1-c1ccc(OC(F)F)cc1` with Histone deacetylase 2 (Homo sapiens), please?
Key: 1570 nM

Exercise: Recorded IC50 for `Nc1ccc(-c2ccoc2)cc1NC(=O)c1cnc(N2CCNCC2)s1` with Histone deacetylase 2 (Homo sapiens), please?
Key: 10 to 500 nM

Exercise: Recorded IC50 for CCCNNC(=O)c1ccc(-c2ccc(NC(=O)COCCOCCOCCNc3cccc4c3C(=O)N(C3CCC(=O)NC3=O)C4=O)cc2)cc1 (centres unmarked) with Histone deacetylase 2 (Homo sapiens), please?
Key: 400 nM

Exercise: Recorded IC50 for `Nc1cc(F)ccc1NC(=O)c1ccc2c(cnn2Cc2cccnc2)c1` with Histone deacetylase 2 (Homo sapiens), please?
Key: < 1000 nM

Exercise: Recorded IC50 for `O=C(NO)c1cc(F)c(Cn2nnnc2-c2ccccn2)c(F)c1` with Histone deacetylase 2 (Homo sapiens), please?
Key: 11400 nM

Exercise: Recorded IC50 for `Nc1ccc(-c2ccco2)cc1NC(=O)c1ccc(N2CCNCC2)s1` with Histone deacetylase 2 (Homo sapiens), please?
Key: 10 to 500 nM

Exercise: Recorded IC50 for `CN1CCN(c2ccc(C(=O)Nc3nc(-c4ccncc4)ccc3N)cn2)CC1` with Histone deacetylase 2 (Homo sapiens), please?
Key: 200 to 1000 nM

Exercise: Recorded IC50 for `Nc1ccccc1NC(=O)c1ccc(CN2C(=S)Nc3cc(F)ccc3S2(=O)=O)cc1` with Histone deacetylase 2 (Homo sapiens), please?
Key: < 50 nM

Next:
Exercise: Recorded IC50 for `Nc1ccccc1NC(=O)c1ccc(CN2C(=O)Nc3ccc(-c4cccs4)cc3S2(=O)=O)cc1` with Histone deacetylase 2 (Homo sapiens), please?
Key: < 50 nM

Exercise: Recorded IC50 for `C/C=C1\NC(=O)c2cccc(n2)CNC(=O)C[C@@H](/C=C/CCSC(=O)CCC)OC(=O)[C@H](C(C)C)NC1=O` with Histone deacetylase 2 (Homo sapiens), please?
Key: 53 nM

###

Published IC50 for Histone deacetylase 2 (Homo sapiens, UniProt Q92769), assembled from different documents, is shown next.
quantity-name: IC50 (nM)

P. O=C(NO)c1cc(F)c(Cn2nnc(-c3scc4c3OCCO4)n2)c(F)c1
Q. CC(C)C[C@H](C(=O)N1CCC(Nc2ncc(C(=O)NO)cn2)(c2ccccc2)CC1)c1ccccc1 (stereo in doubt)
R. C/C=C1\NC(=O)c2nc(ccc2SC)CNC(=O)C[C@@H](/C=C/CCSC(C)=O)OC(=O)[C@H](C)NC1=O
S. C/C=C1\NC(=O)c2cccc(n2)CNC(=O)C[C@@H](/C=C/CCSC(C)=O)OC(=O)[C@H](Cc2ccc(O)cc2)NC1=O
Exercise: // rank the listed compounds by IC50, lowest value first State the ranking by listing the labels in the requested order.
Key: R, S, Q, P
(R: 34 nM, S: 55 nM, Q: 93 nM, P: 6750 nM)

###

Published IC50 for Histone deacetylase 2 (Homo sapiens, UniProt Q92769), assembled from different documents, is shown next.

Example molecules with recorded IC50:
Exercise: Recorded IC50 for `Nc1ccccc1NC(=O)c1ccc(N2CC[C@H](NC(=O)OCC3CC3)C2)cc1` with Histone deacetylase 2 (Homo sapiens, UniProt Q92769), please?
Key: ≤ 500 nM

Exercise: Recorded IC50 for `Nc1ccccc1NC(=O)c1ccc(CN2C(=O)Nc3ccc(-c4ccco4)cc3S2(=O)=O)cc1` with Histone deacetylase 2 (Homo sapiens, UniProt Q92769), please?
Key: < 50 nM

Exercise: Recorded IC50 for `O=C(NO)c1ccc(NCc2csc3ccc(Br)cc23)cc1` with Histone deacetylase 2 (Homo sapiens, UniProt Q92769), please?
Key: > 100000 nM

Exercise: Recorded IC50 for `CN1CCN(c2ccc3cc(C(=O)Nc4cc(-c5nccn5C)ccc4N)cnc3c2)CC1` with Histone deacetylase 2 (Homo sapiens, UniProt Q92769), please?
Key: > 2000 nM

Exercise: Recorded IC50 for `Nc1ccc(-c2cccs2)cc1NC(=O)c1ncc(N2CCNCC2)cn1` with Histone deacetylase 2 (Homo sapiens, UniProt Q92769), please?
Key: 90 to 100 nM

Next:
Exercise: Recorded IC50 for `Nc1ccc(-c2ccc(F)cc2)nc1NC(=O)c1ccc(N2CCC(N)CC2)nc1` with Histone deacetylase 2 (Homo sapiens, UniProt Q92769), please?
Key: < 200 nM

Exercise: Recorded IC50 for `CN(C(=O)N1CCC(Nc2ncc(C(=O)NO)cn2)(c2ccccc2)CC1)c1ccccc1` with Histone deacetylase 2 (Homo sapiens, UniProt Q92769), please?
Key: 377 nM

Exercise: Recorded IC50 for `NC1=Nc2ccccc2S(=O)(=O)N1Cc1ccc(C(=O)Nc2ccccc2N)cc1` with Histone deacetylase 2 (Homo sapiens, UniProt Q92769), please?
Key: 50 to 100 nM

###

Published IC50 for UniProt Q92769, assembled from different documents, is shown next.

Exercise: Record request: IC50 value, item `Nc1ccccc1NC(=O)c1ccc(CN2C(=O)Nc3ccncc3S2(=O)=O)cc1`
Key: > 500 nM

Exercise: Record request: IC50 value, item `Nc1ccccc1NC(=O)c1ccc(CN2C(=S)Nc3cc(C(F)(F)F)ccc3S2(=O)=O)cc1`
Key: 50 to 100 nM

Exercise: Record request: IC50 value, item `Nc1ccccc1NC(=O)c1ccc(CNc2nc3ccccc3[nH]2)cc1`
Key: < 100 nM

Now examine the next entry.
Exercise: Record request: IC50 value, item `CN1CCN(c2ccc(C(=O)Nc3nc(-c4ccc(F)c(F)c4)ccc3N)cn2)CC1`
Key: 200 to 1000 nM

###

Published IC50 for Histone deacetylase 2 (Homo sapiens), assembled from different documents, is shown next.

Exercise: Recorded IC50 for `Nc1ccc(-c2ccccc2)cc1NC(=O)c1ccc(N2CCNCC2)s1` with Histone deacetylase 2 (Homo sapiens), please?
Key: 10 to 500 nM

Exercise: Recorded IC50 for `Nc1ccc(-c2ccc(F)cc2)nc1NC(=O)c1ccc(N2CCNCC2)nc1` with Histone deacetylase 2 (Homo sapiens), please?
Key: < 200 nM

Exercise: Recorded IC50 for `Nc1ccc(-c2ccoc2)cc1NC(=O)c1nc(N2CCNCC2)cs1` with Histone deacetylase 2 (Homo sapiens), please?
Key: 10 to 500 nM

Exercise: Recorded IC50 for `COc1ccc(F)cc1CNc1ccc(C(=O)NO)cc1` with Histone deacetylase 2 (Homo sapiens), please?
Key: 500 to 800 nM

###

Published IC50 for Histone deacetylase 2 (Homo sapiens, UniProt Q92769), assembled from different documents, is shown next.

Example molecules with recorded IC50:
Exercise: Recorded IC50 for `CN(C)CCN(C)c1ccc2cc(C(=O)Nc3cc(-c4cccs4)ccc3N)cnc2c1` with Histone deacetylase 2 (Homo sapiens, UniProt Q92769), please?
Key: 15 to 25 nM

Exercise: Recorded IC50 for `Nc1ccc(-c2ccoc2)cc1NC(=O)c1cnc(N2CCNCC2)cn1` with Histone deacetylase 2 (Homo sapiens, UniProt Q92769), please?
Key: 10 to 500 nM

Exercise: Recorded IC50 for `CNC1=Nc2ccccc2S(=O)(=O)N1Cc1ccc(C(=O)Nc2ccccc2N)cc1` with Histone deacetylase 2 (Homo sapiens, UniProt Q92769), please?
Key: 100 to 500 nM

Exercise: Recorded IC50 for `Nc1ccc(-c2cccs2)cc1NC(=O)c1ccc2ncn(CCN3CCOCC3)c2c1` with Histone deacetylase 2 (Homo sapiens, UniProt Q92769), please?
Key: 1240 to 1250 nM

Exercise: Recorded IC50 for `Nc1ccc(-c2cccs2)cc1NC(=O)c1ccc2[nH]cnc2c1` with Histone deacetylase 2 (Homo sapiens, UniProt Q92769), please?
Key: 20 to 35 nM

Next:
Exercise: Recorded IC50 for `Cc1ccc(-c2ccc(N)c(NC(=O)c3ccc(N4CCNCC4)cn3)c2)cc1` with Histone deacetylase 2 (Homo sapiens, UniProt Q92769), please?
Key: 30 to 40 nM

Exercise: Recorded IC50 for `Nc1ccccc1NC(=O)c1ccc(CN2C(=O)Nc3cc(F)ccc3S2(=O)=O)cc1` with Histone deacetylase 2 (Homo sapiens, UniProt Q92769), please?
Key: 100 to 500 nM
